# assay_summary: amyloid nucleation score (Sup35N fusion, yeast selection) (log enrichment); library NNK1; higher = more nucleation; inactive = no reads after selection;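 note: zero at mode of non-aggregating sequences after 7 days selection at 30°C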
test_readout: amyloid nucleation score
// keep it numeric: no unit symbol after the value

So what's the measured amyloid nucleation score for this one? CLSVLSCSVTSNYWLTS
7.98

So what's the measured amyloid nucleation score for this one? SSIESSYGKFLRGIVSESIK
0.485

So what's the measured amyloid nucleation score for this one? NYASKLYFFLVVMSRFNRKG
-0.115

So what's the measured amyloid nucleation score for this one? VTIHETCRVWRFVRTDRRWG
0.553

So what's the measured amyloid nucleation score for this one? ILYFMLSRFTVVN
0.881

So what's the measured amyloid nucleation score for this one? FSITLTPHRGSVMNIYTANV
1.59

So what's the measured amyloid nucleation score for this one? MTVKSAPK
0.258

So what's the measured amyloid nucleation score for this one? SYGSKFWEFLHFGESV
-0.179

So what's the measured amyloid nucleation score for this one? VTYSYASGDGPDSLWCT
-0.026

So what's the measured amyloid nucleation score for this one? SKHRSIYFIPLSHVESVVVW
-0.192

So what's the measured amyloid nucleation score for this one? CLTMWIV
-0.285

So what's the measured amyloid nucleation score for this one? NINYLFVLYMDGSCMYWRAL
6.35

So what's the measured amyloid nucleation score for this one? GFCLVVLGYCFYMFYATNNS
0.042

So what's the measured amyloid nucleation score for this one? NSITAQRVWVPPFVCLGDRY
0.146

So what's the measured amyloid nucleation score for this one? VKDATSHASGDFGRPGHWDK
-0.042

So what's the measured amyloid nucleation score for this one? ENRTSNFPYKVR
0.421

So what's the measured amyloid nucleation score for this one? SDMYIL
0.807

So what's the measured amyloid nucleation score for this one? ICDINQCRMAFYLCFLLREY
3.35

So what's the measured amyloid nucleation score for this one? CHHSYCMITPLTVSTARNGW
0.749

So what's the measured amyloid nucleation score for this one? DVGGCHVVTGFERNVKGDLL
1.44

So what's the measured amyloid nucleation score for this one? LKTYFGVVSRTLGLCLREEI
0.489

So what's the measured amyloid nucleation score for this one? LWLLHGFDWWKCIYLPGRFL
0.307

So what's the measured amyloid nucleation score for this one? TSGLSGSESKESTDKCCIEC
0.713

So what's the measured amyloid nucleation score for this one? MFRCFSDTKSNRTFCFMHTC
-0.143

So what's the measured amyloid nucleation score for this one? NGHHALLYMPFAQTC
-0.745

So what's the measured amyloid nucleation score for this one? RVVMLCLVCLFGVRGS
0.827

So what's the measured amyloid nucleation score for this one? FAVINSPNKAGNRITRLGTY
0.681

So what's the measured amyloid nucleation score for this one? SYPSGSP
-0.061

So what's the measured amyloid nucleation score for this one? CAVLLVIGTAANEMCARRLI
-0.197

So what's the measured amyloid nucleation score for this one? MCDYFYNIVFVKCCALWCLD
4.01

So what's the measured amyloid nucleation score for this one? TGRYISDYCVIKAYVYSICD
-0.135

So what's the measured amyloid nucleation score for this one? TFTFVFW
3.46

So what's the measured amyloid nucleation score for this one? VYVSFTRNCVGCIGLD
4.62

So what's the measured amyloid nucleation score for this one? GTLHSKCRGICLDCVAIVIL
-0.092

So what's the measured amyloid nucleation score for this one? VRIINMFVDPNIIL
6.82

So what's the measured amyloid nucleation score for this one? RVKEPFRTYSRTALMC
0.306

So what's the measured amyloid nucleation score for this one? YPLTSHYLLTR
0.038

So what's the measured amyloid nucleation score for this one? RRYFSLYLAGSLELMFAWVM
-1.79

So what's the measured amyloid nucleation score for this one? FIYMQSVCAWFISWNSFR
0.355

So what's the measured amyloid nucleation score for this one? SELIAQDMPQIENLTVDAAW
-0.38

So what's the measured amyloid nucleation score for this one? QRHITSL
-1.37

So what's the measured amyloid nucleation score for this one? SARHSMAEAMEYYIFGWVPR
-1.16

So what's the measured amyloid nucleation score for this one? SNCERAIAKSHLVARPFSVS
0.16

So what's the measured amyloid nucleation score for this one? ARWCEGRYSFILNKQQKLAK
0.662

So what's the measured amyloid nucleation score for this one? NKRTLLVVY
-1.19

So what's the measured amyloid nucleation score for this one? TKYCFPFNFQGSLHQWRRRF
0.972

So what's the measured amyloid nucleation score for this one? VPANEFCMADIMHRANRMLG
0.758

So what's the measured amyloid nucleation score for this one? MSISRALLGSSFMFGLVISA
-0.14

So what's the measured amyloid nucleation score for this one? FHPKFWCNRFS
-0.442

So what's the measured amyloid nucleation score for this one? RFVRYQSQHFHKLNSWWGCL
0.135

So what's the measured amyloid nucleation score for this one? FQLGAHKLRAWLDRGYPEFA
-0.202

So what's the measured amyloid nucleation score for this one? LMCWFAGEDPVFVYTVFIVT
-1.49

So what's the measured amyloid nucleation score for this one? YSLLVHIFMLLWSYDCLTVT
-1.54

So what's the measured amyloid nucleation score for this one? EHTRKGGSCNMLQRQPFCCT
0.487

So what's the measured amyloid nucleation score for this one? LIFVNVSGL
6.41

So what's the measured amyloid nucleation score for this one? SDRNERSVLSTCFGGCVPTG
1.14

So what's the measured amyloid nucleation score for this one? LFLGGVIVHSQLCMTVGCCF
6.54

So what's the measured amyloid nucleation score for this one? AVYAAYFWGSI
-0.065

So what's the measured amyloid nucleation score for this one? RRLTLYANFMRLEILSLNVN
0.146

So what's the measured amyloid nucleation score for this one? EQLACQNVVSGCQSA
0.277

So what's the measured amyloid nucleation score for this one? LRAYSVAFYRLPHVSN
1.35

So what's the measured amyloid nucleation score for this one? RYYLISEPILWIYGY
-0.031

So what's the measured amyloid nucleation score for this one? ISYRGSFHTNMWTCILRTAK
0.082

So what's the measured amyloid nucleation score for this one? WNEVILILDNCAIVCYDILT
4.05

So what's the measured amyloid nucleation score for this one? QTLGVGSRYVNVNSGLITQL
-0.05

So what's the measured amyloid nucleation score for this one? RLLEIWFMLRFGLFVSQCTI
-0.148

So what's the measured amyloid nucleation score for this one? LLVWNVNGSAMSCNDRCLQS
7.14

So what's the measured amyloid nucleation score for this one? GGMLQLSSSDFTRWAQEWSI
0.355

So what's the measured amyloid nucleation score for this one? SLEWFSRWSN
1.15

====

# assay_summary: amyloid nucleation score (Sup35N fusion, yeast selection) (log enrichment); library NNK2; higher = more nucleation; inactive = no reads after selection
Grouping by measured amyloid nucleation score is done with the following cut points: bin A: < -0.8; bin B: ≥ -0.8 and < 0.07; bin C: ≥ 0.07

Exercise: read the entry RVLSGRLTTNVDARGCELDR and state which class it falls under.
bin C

Exercise: read the entry EKRNVVVHLIGRWSTTLYWV and state which class it falls under.
bin C

Exercise: read the entry VFDVISI and state which class it falls under.
bin B

Exercise: read the entry IEPKHWIYTSGGLTRGRLYG and state which class it falls under.
bin C

Exercise: read the entry VCSTLVSFHHQRVKKVDAV and state which class it falls under.
bin A

Exercise: read the entry VLNRGGETAYTSMFDVYYI and state which class it falls under.
bin B

Exercise: read the entry GFVERNMYAVDNDFYVQNQT and state which class it falls under.
bin A

Exercise: read the entry DIWIMI and state which class it falls under.
bin B

====

# assay_summary: amyloid nucleation score (Sup35N fusion, yeast selection) (log enrichment); library NNK2; higher = more nucleation; inactive = no reads after selection
The threshold is inclusive: amyloid nucleation score of exactly 2 counts as label 1; values below receive label 0.

Item SWLRMSTDVIGLRWFDGNA with amyloid nucleation score of 2 or above?
label 1

Item SFYIRGYISFLGHRTW with amyloid nucleation score of 2 or above?
label 1

Item ITMSYTLGPSCFFWSLADTY with amyloid nucleation score of 2 or above?
label 1

Item ESHFCLLATVMKDNLTVGSM with amyloid nucleation score of 2 or above?
label 0

Item TILGSLHFNFVKCHSKCSYF with amyloid nucleation score of 2 or above?
label 1

Item VKYFSYDIVGVGREYYFKTT with amyloid nucleation score of 2 or above?
label 0

Item TNVINRCLSPCFGRSLFNIV with amyloid nucleation score of 2 or above?
label 0

Item QGNSETGGNMCYDASCWLYG with amyloid nucleation score of 2 or above?
label 0

Item TNDLIRKFTLYMNQCDFNWS with amyloid nucleation score of 2 or above?
label 0

Item GTSVIHISYFIYYPGDRVRR with amyloid nucleation score of 2 or above?
label 1

Item NAYVEIIIWASRDFMYCRHM with amyloid nucleation score of 2 or above?
label 0

Item EKFESERISFRAMGQGEVLR with amyloid nucleation score of 2 or above?
label 1

Item SRDVAAYNRRRRFAVLGWGE with amyloid nucleation score of 2 or above?
label 0

Item RISCSMVKRSYFRHVLVCEI with amyloid nucleation score of 2 or above?
label 0
